- EXPERIMENTAL_PROTOCOL: Parallel artificial membrane permeability assay (PAMPA)
- Assay type: in vitro ADME
- TEST_SETTINGS: passive permeability
- Text: Preliminary In Vitro Pharmacokinetic Assays.
EXPERIMENTAL_READOUT: PAMPA

| MOLECULE | REPORTED_MEASUREMENT |
| --- | --- |
| C[C@@]1(c2ccc(Cl)cc2Cl)OC[C@@H](COc2ccc(N3CCN(c4ccc(NC(=O)c5cccnc5)cc4)CC3)cc2)O1 [Compound 13] | Poor |
| C[C@]1(c2ccc(Cl)cc2Cl)OC[C@@H](COc2ccc(N3CCN(c4ccc(NC(=O)c5cccnc5)cc4)CC3)cc2)O1 [Compound 18] | Poor |
| C[C@]1(c2ccc(Cl)cc2Cl)OC[C@@H](COc2ccc(N3CCN(c4ccc(NC(=O)c5cccc(O)c5)cc4)CC3)cc2)O1 [Compound 30] | Poor |

---

- Test system: Gli1 mRNA levels in the murine BCC cell line ASZ-001 (Hh pathway)
- EXPERIMENTAL_PROTOCOL: Hh pathway inhibition: endogenous Gli1 mRNA (qRT-PCR) in ASZ-001 cells
- Format: cell-based
- TEST_SETTINGS: Table 8; ASZ cells, Gli1 mRNA, 48 h incubation; read-out: IC50
- Procedure: Initial Hh inhibition studies. General Information for Cell Culture Studies Protocols for general cell culture, qPCR, and Hh inhibition ASZ cells are as previously described. General Information for Cell Culture Studies. Protocols for general cell culture, qPCR, and Hh inhibition ASZ cells are as previously described. Gene Expression Assay Protocol (ASZ-001): Cells are seeded (10,000 cells per well; 100 μL total volume per well) in a 96-well tissue culture plate. […]
EXPERIMENTAL_READOUT: IC50 (nM)

| SMILES_NOTATION | REPORTED_MEASUREMENT |
| --- | --- |
| C[C@@]1(c2ccc(Cl)cc2Cl)OC[C@@H](COc2ccc(N3CCN(c4ccc(-n5cn[nH]c5=O)cc4)CC3)cc2)O1 | 140 |

---

- Test system: Gli1 mRNA levels in the murine BCC cell line ASZ-001 (Hh pathway)
- EXPERIMENTAL_PROTOCOL: Hh pathway inhibition: endogenous Gli1 mRNA (qRT-PCR) in ASZ-001 cells
- Assay type: cell-based
- TEST_SETTINGS: Mus musculus, ASZ001; Table P1; ASZ cells, Gli1 mRNA, 48 h incubation; read-out: IC50
pIC50: −log10 of the molar value.

| MOLECULE | pIC50 |
| --- | --- |
| CC[C@@H](C)n1ncn(-c2ccc(N3CCN(c4ccc(OC[C@@H]5CO[C@@](C)(c6ccc(F)cc6F)C5)cc4)CC3)cc2)c1=O [Compound P1] | 6.72 |

---

The entries below come with measured Solubility values attached.
- EXPERIMENTAL_PROTOCOL: Solubility
EXPERIMENTAL_READOUT: Solubility (nM)

| COMPOUND | EXPERIMENTAL_READOUT | REPORTED_MEASUREMENT |
| --- | --- | --- |
| C[C@]1(c2ccc(Cl)cc2Cl)OC[C@@H](COc2ccc(N3CCN(c4ccc(NC(=O)c5cccc(O)c5)cc4)CC3)cc2)O1 [Compound 30] | Solubility | 1.6 |
| CC(=O)c1cccc(C(=O)Nc2ccc(N3CCN(c4ccc(OC[C@@H]5CO[C@](C)(c6ccc(Cl)cc6Cl)O5)cc4)CC3)cc2)c1 [Compound 34] | Solubility | 1.4 |
| C[C@@]1(c2ccc(Cl)cc2Cl)OC[C@@H](COc2ccc(N3CCN(c4ccc(NC(=O)NN)cc4)CC3)cc2)O1 [Compound 39] | Solubility | 9.3 |
